Data origin: paper PMC4072508

# ASSAY_TARGET: Bcl-xL, Q07817
# Sequence (Q07817 1-209): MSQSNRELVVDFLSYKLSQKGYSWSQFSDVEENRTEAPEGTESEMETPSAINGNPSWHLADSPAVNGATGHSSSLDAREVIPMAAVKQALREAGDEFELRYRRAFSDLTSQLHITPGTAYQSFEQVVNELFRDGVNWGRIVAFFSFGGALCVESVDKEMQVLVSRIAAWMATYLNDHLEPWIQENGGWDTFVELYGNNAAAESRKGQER
# ASSAY_INFO: peptide SPOT array, c-Myc-tagged receptor at 1 uM or 100 nM, anti-c-Myc-Cy3
Is SPOT signal as a fraction of Bim BH3's signal on the same receptor and array at least 0.07? Then condition met. If not, condition not met.

The following binders have reported results that may help.
1. SKFVILSAHKLVFIGDTLSRQAKAAD [BCAR1] | condition met
2. RGAMLSLATGLAHSLSDLSLLVPEIE [FAM115A] | condition not met
3. NGGLLEFHKSLQEILDKNDHWFDIDP [DZIP3] | condition met
4. IKKSVTKGEMLKIVGKRFREHFPEIL [MAGEB2] | condition met
5. NKTMTQLSSTLARCLKDILGFAVMFF | condition met
6. ALKKADVGFAMGIALTDVAKEASDII [ATP2B1] | condition not met
7. ITVVGDVGGRIAIIVDDIIDDVESFV | condition not met
8. NKTMTQLSSTDARCAKDILGFAVMFF | condition not met

We now examine a further binder.
Data request: hey, is SPOT signal as a fraction of Bim BH3's signal on the same receptor and array for this one >= 0.07? DTIFHRAAVRLRDLGGAILRHARRQA [BRPF3]
Data returned: condition met
